assay.text: Lipophilicity, partition between 1-octanol and PBS
Assay type: physicochemical
condition.set: 1-octanol/PBS, pH 7.4, 1-octanol/PBS pH 7.4, shake-flask, n = 6; read-out: LogD
endpoint.label: LogD
Answers are plain numbers.

Query: Can you look up the measured LogD of [18F]CCCN1c2ccccc2SC1c1ccccc1 (stereo not shown) [^18F-FPBT] for me?
Response: 1
